test system: Enterobacter cloacae (ECL) isolates; assay: MIC of compounds alone and combined with antibacterials, broth microdilution (CLSI); assay type: cell-based; details: ECL UFR12; AF1 @ 4 μg/mL
Here, each record is paired with measured MIC ATB in combination data.
// units = µg/mL; emit number, no label

Please look at this compound and report its MIC ATB in combination: "CO/N=C(\C(=O)N[C@@H]1C(=O)N2C(C(=O)O)=C(COC(N)=O)CS[C@H]12)c1ccco1"
16

Please look at this compound and report its MIC ATB in combination: "COCC1=C(C(=O)O)N2C(=O)[C@@H](NC(=O)/C(=N\OC)c3csc(N)n3)[C@H]2SC1"
1

Please look at this compound and report its MIC ATB in combination: "CC(C)(O/N=C(\C(=O)N[C@@H]1C(=O)N2C(C(=O)[O-])=C(C[n+]3ccccc3)CS[C@H]12)c1csc(N)n1)C(=O)O"
0.5

Let us move to another entry and its MIC ATB in combination.
Please look at this compound and report its MIC ATB in combination: "C=CC1=C(C(=O)O)N2C(=O)[C@@H](NC(=O)/C(=N\O)c3csc(N)n3)[C@H]2SC1"
4

---

tested on: Enterobacter cloacae (ECL) isolates; experiment: MIC of compounds alone and combined with antibacterials, broth microdilution (CLSI); assay type: cell-based; details: Enterobacter cloacae, strain ECL 260323 (AmpC); ATB alone
MEASUREMENT NAME: MIC

Record excerpt, results attached:
Please look at this compound and report its MIC: CC(C)(O/N=C(\C(=O)N[C@@H]1C(=O)N2C(C(=O)[O-])=C(C[n+]3ccccc3)CS[C@H]12)c1csc(N)n1)C(=O)O [CAZ, Ceftazidime]
> 256 µg/mL

Please look at this compound and report its MIC: C=CC1=C(C(=O)O)N2C(=O)[C@@H](NC(=O)/C(=N\OCC(=O)O)c3csc(N)n3)[C@H]2SC1 [FIX, Cefixime]
> 128 µg/mL

Please look at this compound and report its MIC: CC1(C)S[C@@H]2[C@H](NC(=O)[C@H](N)c3ccc(O)cc3)C(=O)N2[C@H]1C(=O)O [AMX, Amoxicillin]
> 256 µg/mL

Let us move to another entry and its MIC.
Please look at this compound and report its MIC: CO/N=C(\C(=O)N[C@@H]1C(=O)N2C(C(=O)O)=C(COC(N)=O)CS[C@H]12)c1ccco1 [FUR, Cefuroxime]
> 256 µg/mL

---

test system: Enterobacter aerogenes (EAE) isolates; assay: MIC of compounds alone and combined with antibacterials, broth microdilution (CLSI); assay type: cell-based; details: EAE UFR201; AF1 @ 4 μg/mL
MEASUREMENT NAME: MIC ATB in combination

Please look at this molecule and report its MIC ATB in combination: CO/N=C(\C(=O)N[C@@H]1C(=O)N2C(C(=O)O)=C(COC(N)=O)CS[C@H]12)c1ccco1 [FUR, Cefuroxime]
2 µg/mL

---

test system: Klebsiella pneumoniae (KPN) isolates; test: MIC of compounds alone and combined with antibacterials, broth microdilution (CLSI); type: cell-based; settings: KPN UFR27; AF1 @ 4 μg/mL
MEASUREMENT NAME: MIC ATB in combination (µg/mL)
// units = µg/mL; emit number, no label

Record excerpt, results attached:
Please look at this compound and report its MIC ATB in combination: COCC1=C(C(=O)O)N2C(=O)[C@@H](NC(=O)/C(=N\OC)c3csc(N)n3)[C@H]2SC1 [POD, Cefpodoxime]
4

Please look at this compound and report its MIC ATB in combination: C=CC1=C(C(=O)O)N2C(=O)[C@@H](NC(=O)/C(=N\O)c3csc(N)n3)[C@H]2SC1 [CDR, Cefdinir]
8

Others:
Please look at this compound and report its MIC ATB in combination: CC(C)(O/N=C(\C(=O)N[C@@H]1C(=O)N2C(C(=O)[O-])=C(C[n+]3ccccc3)CS[C@H]12)c1csc(N)n1)C(=O)O [CAZ, Ceftazidime]
4

Please look at this compound and report its MIC ATB in combination: CO/N=C(\C(=O)N[C@@H]1C(=O)N2C(C(=O)O)=C(COC(N)=O)CS[C@H]12)c1ccco1 [FUR, Cefuroxime]
32

Please look at this compound and report its MIC ATB in combination: C=CC1=C(C(=O)O)N2C(=O)[C@@H](NC(=O)/C(=N\OCC(=O)O)c3csc(N)n3)[C@H]2SC1 [FIX, Cefixime]
16
